Measured MCC mammalian cells Vero E6 ATCC CRL1586, listed per entry for reference.
# Test system: Vero E6 ATCC CRL1586 cells
# test details: Mammalian-cell cytotoxicity, minimal cytotoxic concentration (CellTiter96)
# Format: cell-based
recorded metric: MCC mammalian cells Vero E6 ATCC CRL1586 (µg/mL)

                                    molecule                 target_desc  display_unit  cmp  result
 0  O=C(NC(Cc1ccccc1)C(=O)Nc1cccc2cccnc12)c1ccccc1 (stereo not shown) [IX-2]  Vero E6 ATCC CRL1586 cells         µg/mL    >      39
 1  CCCc1ccccc1NC(=O)C(Cc1ccccc1)NC(=O)c1ccccc1 (stereo not shown) [I-126]  Vero E6 ATCC CRL1586 cells         µg/mL    =      10
 2  Cc1ccc(F)cc1NC(=O)C(Cc1ccccc1)NC(=O)c1cccs1 (stereo not shown) [IX-79]  Vero E6 ATCC CRL1586 cells         µg/mL    =      23
 3  O=C(NC(Cc1ccccc1)C(=O)Nc1cccc2cc[nH]c12)c1ccccc1Cl (stereo not shown) [IX-95]  Vero E6 ATCC CRL1586 cells         µg/mL    =      20
 4  O=C(NC(Cc1ccccc1)C(=O)Nc1cccc2ncccc12)c1ccccc1Cl (stereo not shown) [IX-64]  Vero E6 ATCC CRL1586 cells         µg/mL    =      78
 5  O=C(NC(Cc1ccccc1)C(=O)Nc1ccccc1-n1ccnn1)c1ccccc1 (stereo not shown) [I-214]  Vero E6 ATCC CRL1586 cells         µg/mL    >     100
 6  O=C(NC(Cc1ccccc1)C(=O)Nc1ccccc1N1CCNCC1)c1cccc2[nH]ccc12 (stereo not shown) [IX-242]  Vero E6 ATCC CRL1586 cells         µg/mL    =      12
 7  Cc1ccc(Cl)cc1NC(=O)C(Cc1ccccc1)NC(=O)c1ccccc1F (stereo not shown) [IX-55]  Vero E6 ATCC CRL1586 cells         µg/mL    =      10
 8  Cc1ccccc1NC(=O)C(Cc1cccc(O)c1)NC(=O)c1ccccc1 (stereo not shown) [I-12]  Vero E6 ATCC CRL1586 cells         µg/mL    >     100
 9  Cc1ccc(Cl)cc1NC(=O)C(Cc1ccc(O)cc1)NC(=O)c1ccccc1 (stereo not shown) [IX-51]  Vero E6 ATCC CRL1586 cells         µg/mL    =      60
10  O=C(NC(Cc1ccccc1)C(=O)Nc1cc(F)ccc1N1CCOCC1)c1ccccc1F (stereo not shown) [IX-158]  Vero E6 ATCC CRL1586 cells         µg/mL    >     100
11  O=C(NC(Cc1ccccc1)C(=O)Nc1cccc2ccoc12)c1ccccc1 (stereo not shown) [II-65]  Vero E6 ATCC CRL1586 cells         µg/mL    =      78
12  O=C(NC(Cc1ccccc1)C(=O)Nc1cccc2c1OCO2)c1cccs1 (stereo not shown) [IX-98]  Vero E6 ATCC CRL1586 cells         µg/mL    =      13
13  Cc1ccccc1NC(=O)C(Cc1ccccc1)NC(=O)c1ccccc1Cl (stereo not shown) [I-91]  Vero E6 ATCC CRL1586 cells         µg/mL    =      19
14  CC(=O)Oc1ccc(CC(NC(=O)c2cccs2)C(=O)Nc2ccccc2N2CCOCC2)cc1 (stereo not shown) [IX-182]  Vero E6 ATCC CRL1586 cells         µg/mL    =      99
15  COc1ccc(Cl)cc1NC(=O)C(Cc1ccccc1)NC(=O)c1ccccc1C (stereo not shown) [IX-279]  Vero E6 ATCC CRL1586 cells         µg/mL    =      87
16  O=C(NC(Cc1ccccc1)C(=O)Nc1ccccc1N1CCNCC1)c1cccs1 (stereo not shown) [IX-213]  Vero E6 ATCC CRL1586 cells         µg/mL    =      33
17  CC1CN(c2ccccc2NC(=O)C(Cc2ccccc2)NC(=O)c2ccccc2)CC(C)O1 (stereo not shown) [IX-265]  Vero E6 ATCC CRL1586 cells         µg/mL    >     100
18  CCCOc1ccccc1NC(=O)C(Cc1ccccc1)NC(=O)c1ccccc1 (stereo not shown) [I-39]  Vero E6 ATCC CRL1586 cells         µg/mL    =      20
19  COc1ccccc1NC(=O)C(Cc1ccccc1)NC(=O)c1ccccc1Cl (stereo not shown) [IX-62]  Vero E6 ATCC CRL1586 cells         µg/mL    =      12
20  O=C(NC(Cc1ccccc1)C(=O)Nc1cccc2ncccc12)c1cccs1 (stereo not shown) [IX-85]  Vero E6 ATCC CRL1586 cells         µg/mL    =      40
21  O=C(NC(Cc1ccc(O)cc1)C(=O)Nc1cc(F)ccc1N1CCNCC1)c1cccs1 (stereo not shown) [IX-222]  Vero E6 ATCC CRL1586 cells         µg/mL    =      38
22  Cc1ccccc1C(=O)NC(Cc1ccccc1)C(=O)Nc1cccc2ncccc12 (stereo not shown) [IX-70]  Vero E6 ATCC CRL1586 cells         µg/mL    =      63
23  COc1ccccc1NC(=O)C(Cc1ccccc1)NC(=O)c1cccs1 (stereo not shown) [IX-29]  Vero E6 ATCC CRL1586 cells         µg/mL    >     100
24  Cc1ccc(Cl)cc1NC(=O)C(Cc1ccccc1)NC(=O)c1ccccc1C (stereo not shown) [IX-67]  Vero E6 ATCC CRL1586 cells         µg/mL    =       8

Source listed as patent US9919998B2.
